target: alpha-synuclein (monomer) (UniProt P37840 P37840:1-140); experiment: MST; 1x PBS, 0.05% Tween-20, 25 C; 50 nM aptamer
reported.metric: pKd
Scale for pKd: -log10 of concentration given in mol/L; no unit attached.

binder a-syn-3 (GdJUhe) (ssDNA) DNA: ATAGTCCCATCATTCATTGTATGAGATGGGGTGGTGACGTCAGCATGGAGATATTAGCAAGTGTCA , pKd observed: 7.03

binder a-syn-2 (1LBiGJFJC) (ssDNA) DNA: ATAGTCCCATCATTCATTGTATGGTACGGCGCGGTGGCGGGTGCGGGGAGATATTAGCAAGTGTCA , pKd observed: 6.54
